ASSAYED_SYSTEM: T1, human SLC34A2 (human, UniProt O95436 1-690)
T1 construct: whole, on cells; also called human solute carrier 34 A2; NaPi2b
T1 sequence (looked up): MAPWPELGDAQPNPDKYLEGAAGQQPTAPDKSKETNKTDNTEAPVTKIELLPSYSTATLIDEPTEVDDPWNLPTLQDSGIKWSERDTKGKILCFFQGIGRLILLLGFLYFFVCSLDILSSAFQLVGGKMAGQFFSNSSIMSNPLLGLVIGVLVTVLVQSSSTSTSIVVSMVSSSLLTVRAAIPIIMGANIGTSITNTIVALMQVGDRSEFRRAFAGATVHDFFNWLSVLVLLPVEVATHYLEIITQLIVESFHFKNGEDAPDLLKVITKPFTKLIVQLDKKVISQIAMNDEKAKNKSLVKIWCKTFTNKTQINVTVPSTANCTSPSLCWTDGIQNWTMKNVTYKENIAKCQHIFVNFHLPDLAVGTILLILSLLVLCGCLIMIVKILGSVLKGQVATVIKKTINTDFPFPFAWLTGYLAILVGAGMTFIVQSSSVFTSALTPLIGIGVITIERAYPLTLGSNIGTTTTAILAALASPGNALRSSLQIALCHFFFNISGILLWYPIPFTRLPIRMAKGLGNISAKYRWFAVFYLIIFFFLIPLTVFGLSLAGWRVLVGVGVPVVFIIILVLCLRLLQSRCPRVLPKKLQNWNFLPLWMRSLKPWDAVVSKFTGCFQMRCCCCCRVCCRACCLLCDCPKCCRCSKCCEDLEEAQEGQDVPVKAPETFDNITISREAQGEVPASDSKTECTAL
EXPERIMENT_DESCRIPTION: FACS, RMG-1 cells

BINDER: 91C9F1.p1.z7 hIgG1 (antibody, V domains shown, humanized hIgG1) VH: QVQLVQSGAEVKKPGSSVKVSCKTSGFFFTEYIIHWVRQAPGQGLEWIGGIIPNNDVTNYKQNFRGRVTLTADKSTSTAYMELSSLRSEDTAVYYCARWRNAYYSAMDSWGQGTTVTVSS VL: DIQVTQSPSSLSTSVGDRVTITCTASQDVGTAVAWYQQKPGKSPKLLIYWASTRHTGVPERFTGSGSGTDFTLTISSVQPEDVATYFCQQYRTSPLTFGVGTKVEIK
EC50, nM: 2.3
